Data provenance is patent US20160362487A1.

Biological target: T1, cynomolgus monkey IL-33 expressed with a C-terminal hexahistidine tag (cynomolgus monkey)
T1 construct: also called MfIL-33-6His; Mf-IL-33-6His
T1 chain: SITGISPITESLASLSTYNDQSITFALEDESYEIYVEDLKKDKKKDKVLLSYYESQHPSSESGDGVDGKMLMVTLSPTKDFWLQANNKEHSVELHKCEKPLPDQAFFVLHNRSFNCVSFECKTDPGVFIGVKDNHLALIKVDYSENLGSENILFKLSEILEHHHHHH
Assay: SPR 25C pH7.4, mAb captured
endpoint_name: pKd
Conceptually, pKd converts a concentration in mol/L into minus its log10.

H4H9670P (antibody, V domains shown, Human IgG4 Fc (H4H)) VH: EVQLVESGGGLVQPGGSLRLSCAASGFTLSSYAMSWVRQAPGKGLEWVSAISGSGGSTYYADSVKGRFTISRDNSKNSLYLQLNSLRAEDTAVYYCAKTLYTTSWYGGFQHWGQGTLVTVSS VL: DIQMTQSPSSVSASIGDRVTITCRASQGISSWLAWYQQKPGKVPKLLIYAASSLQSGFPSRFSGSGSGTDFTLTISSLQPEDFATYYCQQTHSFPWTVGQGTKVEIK    8.32
H4H9640P (antibody, human IgG4, V domains shown, Human IgG4 Fc (H4H)) VH: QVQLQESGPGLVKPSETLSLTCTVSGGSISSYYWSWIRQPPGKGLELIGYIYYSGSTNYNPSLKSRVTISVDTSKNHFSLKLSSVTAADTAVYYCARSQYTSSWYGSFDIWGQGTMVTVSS VL: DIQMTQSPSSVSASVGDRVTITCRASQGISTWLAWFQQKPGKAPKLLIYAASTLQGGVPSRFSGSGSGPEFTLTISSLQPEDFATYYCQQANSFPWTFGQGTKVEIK    8.51
H4H9633P (antibody, human IgG4, V domains shown, Human IgG4 Fc (H4H)) VH: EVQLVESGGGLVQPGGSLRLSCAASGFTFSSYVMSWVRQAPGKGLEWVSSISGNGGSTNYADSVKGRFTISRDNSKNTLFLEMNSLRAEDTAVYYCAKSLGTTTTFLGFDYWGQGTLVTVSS VL: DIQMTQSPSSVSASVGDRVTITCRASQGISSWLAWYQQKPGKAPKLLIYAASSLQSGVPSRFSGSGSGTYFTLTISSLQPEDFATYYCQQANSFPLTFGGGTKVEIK    7.42
H4H9676P (antibody, human IgG4, V domains shown, Human IgG4 Fc (H4H)) VH: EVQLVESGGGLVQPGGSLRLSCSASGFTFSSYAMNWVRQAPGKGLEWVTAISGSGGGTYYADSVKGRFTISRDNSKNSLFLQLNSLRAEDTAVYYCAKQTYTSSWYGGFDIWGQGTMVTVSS VL: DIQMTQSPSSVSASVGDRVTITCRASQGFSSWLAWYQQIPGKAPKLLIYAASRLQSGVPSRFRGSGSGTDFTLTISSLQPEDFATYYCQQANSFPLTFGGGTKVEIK    8.32

Okay, now this binder:
Q. GET /values?readout=pKd&item= H4H9671P (antibody, human IgG4, V domains shown, Human IgG4 Fc (H4H)) VH: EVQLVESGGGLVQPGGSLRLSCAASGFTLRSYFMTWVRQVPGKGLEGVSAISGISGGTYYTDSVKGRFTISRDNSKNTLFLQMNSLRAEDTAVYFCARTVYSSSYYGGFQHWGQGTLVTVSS VL: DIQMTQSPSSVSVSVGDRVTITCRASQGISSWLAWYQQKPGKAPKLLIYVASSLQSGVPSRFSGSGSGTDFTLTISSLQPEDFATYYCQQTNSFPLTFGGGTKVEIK
A. 8.59
